Recorded values, source patent US20240209089A1.

# TESTED ON: T1, human CD8α full-length protein (human, UniProt P01732 22-235)
# T1 construct: whole, on cells; The same entry is used for MC38-CD8α transfectants and for human CD8+ T cells from peripheral blood; the assay field says which cells; also called cell surface CD8α; MC38-CD8α cells
# T1 sequence (P01732 22-235): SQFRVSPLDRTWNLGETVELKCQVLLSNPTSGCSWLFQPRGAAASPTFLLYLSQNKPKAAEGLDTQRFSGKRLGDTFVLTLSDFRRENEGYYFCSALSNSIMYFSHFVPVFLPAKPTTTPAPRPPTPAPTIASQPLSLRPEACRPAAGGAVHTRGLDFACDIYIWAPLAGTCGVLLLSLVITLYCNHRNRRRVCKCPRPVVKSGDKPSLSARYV
# TEST METHOD NOTES: flow cytometry on MC38-CD8α cells, secondary antibody-PE
Measured Positive rate (%) by item

# BINDER, UNIT TEXT, Positive rate (%)
measured = [
    ("anti-CD8α single domain antibody S7 (VHH, not shown: small tags and cut ends, Only the E. coli expression is described for this antibody) VHH: QLQLVESGGGLVQPGGSLRLSCAASGSIFSINGMGWYRQAPGKQREAVAVITSGGKIDYLDSVKGRFTISRDSAKNTVALQMNSLKPEDTAVYYCNAYGDVRRGEVRWGQGTQVTVSS", "%", 99.3),
    ("anti-CD8α single domain antibody S32 (VHH, not shown: small tags and cut ends, Only the E. coli expression is described for this antibody) VHH: QLQLVESGGGLVQPGGSLRLSCAASGSIFSINTMGWYRQAPGKQRELVATMHSTGSTNYADSVKGRFTISRDNAKKTVYLQMNSLKPDDTAVYYCHVDDMGWGTVDSWGQGTQVTVSS", "%", 99.1),
    ("C46-cHis antibody (VHH, HEK293 construct; an E. coli preparation is also described; Biotinylated for the ForteBio assay; also called SNA006c; SNA006-c) VHH: QVQLVESGGGLVQAGGSLRLSCAASGVTFDDLAIGWFRQVPGKGREGVSTIGTSDGTAYYADSVKGRFTISSDNAKNTVYLQMNSLKPEDTAVYYCAVDLDYGLGSLLPMGYDYWGQGTQVTVSS", "%", 99.5),
    ("anti-CD8α single domain antibody S23 (VHH, not shown: small tags and cut ends, Only the E. coli expression is described for this antibody) VHH: QVQLVESGGGLVQPGGSLRLSCAASGSIFSINGMGWYRQAPGKQRELVAAITSGGKTDYLDSVKGRFTISRDSAKNTVALQMNSLKPEDTAVYYCNAYGDVQRGEVRWGQGTQVTVSS", "%", 99.3),
    ("C24-cHis antibody (VHH, HEK293 construct; an E. coli preparation is also described) VHH: QVQLVESGGGLVQPGGSLRLSCAASGPIFSINTMGWYRQAPGKQRELVATMHSTGSTNYADSVKGRFTISRDNAKKTVYLQMNSLKPDDTAVYYCHVDDTGWGTVDSWGQGIQVTVSS", "%", 99.4),
    ("anti-CD8α single domain antibody C20 (VHH, not shown: small tags and cut ends, Only the E. coli expression is described for this antibody) VHH: QVQLVESGGGLVQPGGSLRLSCAASGSIFSINTMGWYRQAPGKQRELVATMHSTGSTNYADSVKGRFTISRDNAKKTVYLQMNSLEPDDTAVYYCHVDDTGWGTVDSWGQGTQVTVS", "%", 98.9),
    ("C2-cHis antibody (VHH, HEK293 construct; An E. coli (PET22b) preparation is also described) VHH: QVQLVESGGGLVQPGGSLRLSCAASGFTLDYYAIGWFRQAPGKEREGISCIRIYDGNTYSAESVKGRFTISSDNAKNQVYLQINTLKPEDTAVYYCAAGSYYSCSVYPDYDMDYWGKGTLVTVSS", "%", 99.9),
]
